Data origin, for the record: ChEMBL document CHEMBL3600329

Target: Trypanothione reductase (Trypanosoma brucei brucei, UniProt P39051)
Sequence (P39051 whole entry): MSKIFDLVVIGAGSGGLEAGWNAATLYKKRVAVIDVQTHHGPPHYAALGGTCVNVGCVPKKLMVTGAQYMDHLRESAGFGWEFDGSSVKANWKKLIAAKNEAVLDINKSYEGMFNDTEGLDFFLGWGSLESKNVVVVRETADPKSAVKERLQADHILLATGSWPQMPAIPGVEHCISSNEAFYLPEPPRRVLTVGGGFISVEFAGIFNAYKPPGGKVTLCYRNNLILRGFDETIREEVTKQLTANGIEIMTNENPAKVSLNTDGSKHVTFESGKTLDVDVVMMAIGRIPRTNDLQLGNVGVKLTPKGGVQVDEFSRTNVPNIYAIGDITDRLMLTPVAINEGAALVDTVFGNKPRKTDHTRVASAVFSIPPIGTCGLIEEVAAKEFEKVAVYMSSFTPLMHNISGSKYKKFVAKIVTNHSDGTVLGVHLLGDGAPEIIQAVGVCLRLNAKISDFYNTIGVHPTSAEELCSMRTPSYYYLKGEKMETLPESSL
Experiment: Inhibition of Trypanosoma brucei recombinant Trypanothione reductase assessed as decrease in (T[SH]2) formation using trypanothione disulfide as substrate after 15 mins by colorimetric analysis
Observation type: pIC50
// returns pIC50 (minus log10 of molar concentration), number only

**Q:** Reported pIC50 for CC1=CC2Cc3nc4cc(Cl)ccc4c(N)c3C(C1)C2 (stereo not drawn) [HUPRINE Y] : what is it?
**A:** 5.30

**Q:** Consider the compound shown here: COc1cc2c(cc1OC)CC(CC1CCN(CCCNc3c4c(nc5cc(Cl)ccc35)CC3C=C(C)CC4C3)CC1)C2 (stereo not drawn) What is its recorded pIC50?
**A:** 5.31

**Q:** // returns reported pIC50 for input CC1=CC2Cc3nc4cc(Cl)ccc4c(NCCCCCCCCNc4c5c(nc6ccccc46)CCCC5)c3C(C1)C2 (stereo not drawn)
**A:** 6.06

---

Target: Acetylcholinesterase (Homo sapiens, UniProt P22303)
Sequence (P22303 whole entry): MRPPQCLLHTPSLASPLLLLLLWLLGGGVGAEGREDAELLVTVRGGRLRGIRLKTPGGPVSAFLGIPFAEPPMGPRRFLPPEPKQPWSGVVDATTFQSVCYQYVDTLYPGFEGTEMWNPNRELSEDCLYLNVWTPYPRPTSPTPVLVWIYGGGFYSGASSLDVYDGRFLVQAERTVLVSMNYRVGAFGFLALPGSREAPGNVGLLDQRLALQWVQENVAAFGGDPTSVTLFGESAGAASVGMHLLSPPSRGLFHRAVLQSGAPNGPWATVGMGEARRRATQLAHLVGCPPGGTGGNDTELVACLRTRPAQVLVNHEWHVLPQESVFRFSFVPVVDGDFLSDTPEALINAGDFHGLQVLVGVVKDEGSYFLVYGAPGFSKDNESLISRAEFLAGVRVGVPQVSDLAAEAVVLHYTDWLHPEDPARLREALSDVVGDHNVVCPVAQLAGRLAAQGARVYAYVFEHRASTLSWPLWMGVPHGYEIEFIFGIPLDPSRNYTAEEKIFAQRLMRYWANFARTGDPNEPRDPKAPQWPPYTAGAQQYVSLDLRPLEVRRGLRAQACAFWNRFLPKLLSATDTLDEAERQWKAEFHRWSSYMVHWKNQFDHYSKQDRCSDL
Assay: Inhibition of human recombinant AChE using acetylthiocholine iodide as substrate preincubated with enzyme for 20 mins prior to substrate addition by Ellman's method
Observation type: IC50 (nM)
Only the number, expressed in nM, is required.

Examples with answers:
Compound | Assayed target | IC50 [nM]
CC1=CC2Cc3nc4ccccc4c(NCCCCCCCCCCNc4c5c(nc6cc(Cl)ccc46)CCCC5)c3C(C1)C2 (stereo unspecified) | Acetylcholinesterase (Homo sapiens, UniProt P22303) | 1.48
CC1=CC2Cc3nc4cc(Cl)ccc4c(NCCCCCCCCCCCCNc4c5c(nc6cc(Cl)ccc46)CCCC5)c3C(C1)C2 (stereo unspecified) | Acetylcholinesterase (Homo sapiens, UniProt P22303) | 3.46
CC1=CC2Cc3nc4cc(Cl)ccc4c(NCCCCCCCCCCCCNc4c5c(nc6ccccc46)CCCC5)c3C(C1)C2 (stereo unspecified) | Acetylcholinesterase (Homo sapiens, UniProt P22303) | 1.92
CC1=CC2Cc3nc4ccccc4c(NCCCCCCCCCCNc4c5c(nc6ccccc46)CCCC5)c3C(C1)C2 (stereo unspecified) | Acetylcholinesterase (Homo sapiens, UniProt P22303) | 6.46
CC1=CC2Cc3nc4ccccc4c(NCCCCCCCCCCCCNc4c5c(nc6ccccc46)CCCC5)c3C(C1)C2 (stereo unspecified) | Acetylcholinesterase (Homo sapiens, UniProt P22303) | 10.1

Let's switch to this compound now.
**Q:** Field request: IC50 | item: CC1=CC2Cc3nc4ccccc4c(NCCCCCCCCCCCCNc4c5c(nc6cc(Cl)ccc46)CCCC5)c3C(C1)C2 (stereo unspecified)
**A:** 3.66

---

Assay: Permeability by PAMPA-BBB assay
Type: ADME
Conditions: read-out: Peff
Observation type: Papp (×10⁻⁶ cm/s)
The reply should be a number in ×10⁻⁶ cm/s, with the unit left off.

Molecule | Observation type | Measured number
CC1=CC2Cc3nc4ccccc4c(NCCCCCCCCCCCCNc4c5c(nc6ccccc46)CCCC5)c3C(C1)C2 (stereo unspecified) | Papp | 7.3
CC1=CC2Cc3nc4ccccc4c(NCCCCCCCCCCCCNc4c5c(nc6cc(Cl)ccc46)CCCC5)c3C(C1)C2 (stereo unspecified) | Papp | 11
CC1=CC2Cc3nc4cc(Cl)ccc4c(NCCCCCCCCCCCCNc4c5c(nc6cc(Cl)ccc46)CCCC5)c3C(C1)C2 (stereo unspecified) | Papp | 16.8
CC1=CC2Cc3nc4ccccc4c(NCCCCCCCCCCNc4c5c(nc6cc(Cl)ccc46)CCCC5)c3C(C1)C2 (stereo unspecified) | Papp | 17.2
CC1=CC2Cc3nc4cc(Cl)ccc4c(NCCCCCCCCCCCCNc4c5c(nc6ccccc46)CCCC5)c3C(C1)C2 (stereo unspecified) | Papp | 10.8

Next molecule, please.
**Q:** Entry CC1=CC2Cc3nc4ccccc4c(NCCCCCCCCCCNc4c5c(nc6ccccc46)CCCC5)c3C(C1)C2 (stereo unspecified) : reported Papp = ?
**A:** 6.3

---

Experiment: Selectivity index, ratio of IC50 for rat L6 cells to IC50 for bloodstream form of Trypanosoma brucei 221
Type: toxicity, cell-based
Settings: read-out: Ratio IC50
We begin with a simple list: items and their reported selectivity ratio.

Worked examples, 10 molecules total:
Molecule | Result
CC1=CC2Cc3nc4cc(Cl)ccc4c(NCCCCCCCCNc4c5c(nc6cc(Cl)ccc46)CCCC5)c3C(C1)C2 (configuration not stated) | 5.7
COc1cc2c(cc1OC)CC(CC1CCN(CCCNc3c4c(nc5cc(Cl)ccc35)CC3C=C(C)CC4C3)CC1)C2 (configuration not stated) | 12
CC1=CC2Cc3nc4cc(Cl)ccc4c(NCCCCCCCCNc4c5c(nc6ccccc46)CCCC5)c3C(C1)C2 (configuration not stated) | 7.4
CC1=C[C@@H]2Cc3nc4cc(Cl)ccc4c(NCCCCCCCNc4c5c(nc6ccccc46)CCCC5)c3[C@H](C1)C2 | < 3.4
CC1=CC2Cc3nc4cc(Cl)ccc4c(NCCCCCCNc4c5c(nc6cc(Cl)ccc46)CCCC5)c3C(C1)C2 (configuration not stated) | 2
CC1=CC2Cc3nc4cc(Cl)ccc4c(NCCCN(C)CCCNc4c5c(nc6cc(Cl)ccc46)CCCC5)c3C(C1)C2 (configuration not stated) | < 3.6
CC1=CC2Cc3nc4cc(Cl)ccc4c(NCCCCCCNc4c5c(nc6ccccc46)CCCC5)c3C(C1)C2 (configuration not stated) | 2.5
CC1=CC2Cc3nc4cc(Cl)ccc4c(NCCCCCCCCCCCCNc4c5c(nc6cc(Cl)ccc46)CCCC5)c3C(C1)C2 (configuration not stated) | 9.5
CC1=CC2Cc3nc4cc(Cl)ccc4c(NCCCCCCCNc4c5c(nc6cc(Cl)ccc46)CCCC5)c3C(C1)C2 (configuration not stated) | < 11
CC1=CC2Cc3nc4ccccc4c(NCCCCCCCCCCNc4c5c(nc6cc(Cl)ccc46)CCCC5)c3C(C1)C2 (configuration not stated) | 3.3

**Q:** Which selectivity ratio value is on record for CCC1=CC2Cc3nc4cc(Cl)ccc4c(NCCN4CCC(CC5Cc6cc(OC)c(OC)cc6C5)CC4)c3C(C1)C2 (configuration not stated) ?
**A:** 12

**Q:** Look at this molecule and give its reported selectivity ratio. COc1cc2c(cc1OC)C(=O)C(CC1CCN(CCNc3c4c(nc5cc(Cl)ccc35)CCCC4)CC1)C2 (configuration not stated)
**A:** < 10

**Q:** Reported selectivity ratio, molecule "CC1=C[C@H]2Cc3nc4cc(Cl)ccc4c(NCCCCCCCNc4c5c(nc6ccccc46)CCCC5)c3[C@@H](C1)C2" : ____
**A:** 3.5

**Q:** Given the entry CC1=CC2Cc3nc4cc(Cl)ccc4c(NCCCCCCCCCCCCNc4c5c(nc6ccccc46)CCCC5)c3C(C1)C2 (configuration not stated) , report its measured selectivity ratio.
**A:** 3

**Q:** Can you look up the measured selectivity ratio of CC1=CC2Cc3nc4ccccc4c(NCCCCCCCCCCNc4c5c(nc6ccccc46)CCCC5)c3C(C1)C2 (configuration not stated) for me?
**A:** < 4.2

**Q:** Quick one: selectivity ratio for CC1=CC2Cc3nc4cc(Cl)ccc4c(NCCCN(C)CCCNc4c5c(nc6ccccc46)CCCC5)c3C(C1)C2 (configuration not stated) ?
**A:** < 3.1

**Q:** What does the data say about its selectivity ratio? Entry: CC1=CC2Cc3nc4cc(Cl)ccc4c(NCCCCCCCCCCNc4c5c(nc6cc(Cl)ccc46)CCCC5)c3C(C1)C2 (configuration not stated)
**A:** 15

---

Assay: Selectivity index, ratio of IC50 for rat L6 cells to IC50 for chloroquine-resistant Plasmodium falciparum K1
Assay type: toxicity, cell-based
Conditions: read-out: Ratio IC50
Observation type: selectivity ratio

Below are worked cases with known answers.
Molecule | Result
COc1cc2c(cc1OC)CC(CC1CCN(CCNc3c4c(nc5cc(Cl)ccc35)CCCC4)CC1)C2 | < 0.31
CC1=C[C@@H]2Cc3nc4cc(Cl)ccc4c(NCCCCCCCNc4c5c(nc6ccccc46)CCCC5)c3[C@H](C1)C2 | < 2.2
COc1cc2c(cc1OC)CC(CC1CCN(CCNc3c4c(nc5cc(Cl)ccc35)CC3C=C(C)CC4C3)CC1)C2 (stereo not given) | < 1

**Q:** Given the entry CC1=CC2Cc3nc4cc(Cl)ccc4c(NCCCCCCCCNc4c5c(nc6cc(Cl)ccc46)CCCC5)c3C(C1)C2 (stereo not given) , report its measured selectivity ratio.
**A:** < 0.14

**Q:** Entry under review: CC1=CC2Cc3nc4cc(Cl)ccc4c(NCCCCCCCNc4c5c(nc6cc(Cl)ccc46)CCCC5)c3C(C1)C2 (stereo not given) . Reported selectivity ratio?
**A:** < 0.44

**Q:** I would be grateful if you could share the reported selectivity ratio for CC1=CC2Cc3nc4cc(Cl)ccc4c(NCCCCCCCNc4c5c(nc6ccccc46)CCCC5)c3C(C1)C2 (stereo not given) .
**A:** < 2.1
